meta.source: ChEMBL document CHEMBL2346568

method notes: Half life in F344 rat at 25 mg/kg, po
particulars: in vivo
recorded endpoint: half-life (h)

smiles text	recorded endpoint	quantitative result
NC(=O)c1sc2nccc(N3CCCN(c4ccccc4)CC3)c2c1N	half-life	3.22

###

method notes: Volume of distribution in F344 rat at 2 mg/kg, iv
Format: ADME, organism-based
Set-up: dose 2 mg/kg, route intravenous
particulars: in vivo
Listed compounds paired with reported Vd
recorded endpoint: Vd (L/kg)

smiles text	recorded endpoint	quantitative result
NC(=O)c1sc2nccc(N3CCCN(c4ccccc4)CC3)c2c1N	Vd	4.2
CN(C)c1ccnc2sc(C(N)=O)c(N)c12	Vd	1.1

###

method notes: Cmax in F344 rat at 25 mg/kg, po
Assay type: ADME, organism-based
Parameters: dose 25 mg/kg, route oral
particulars: in vivo

smiles text	display unit	Cmax
NC(=O)c1sc2nccc(N3CCCN(c4ccccc4)CC3)c2c1N	ng/mL	2540
CN(C)c1ccnc2sc(C(N)=O)c(N)c12	ng/mL	5590
